B1: PLEKHM1‐LIR WT peptide (EDEWVNVQY), biotinylated [modified: biotin; biotin] [not stated] / 6xHis‐tagged GABARAP‐L1 [human] (parent complex)
chain 1: EDEWVNVQY
chain 2: not shown

variants of: B1; test: peptide array ELISA (biotinylated peptide on streptavidin plate, 6xHis-mATG8, anti-His-HRP, TMB); absorbance at 450 nm; n = 4; read off a plot
Can you tell me screen value for the items I'm about to list?

screen value reading for chain 1 V5A : ~1.7 fold over mutLIR

screen value reading for chain 1 V7A : ~2 fold over mutLIR

screen value reading for chain 1 V5A, chain 1 N6A : ~1.3 fold over mutLIR

screen value reading for chain 1 N6A : ~9.9 fold over mutLIR
